# subject-of-test: Recombinant human LTC4 synthase (Homo sapiens, UniProt Q16873)
# Construct: made in house; host or cells: Pichia pastoris ('Piccia pastoralis' [sic])
# Sequence (Q16873 1-150): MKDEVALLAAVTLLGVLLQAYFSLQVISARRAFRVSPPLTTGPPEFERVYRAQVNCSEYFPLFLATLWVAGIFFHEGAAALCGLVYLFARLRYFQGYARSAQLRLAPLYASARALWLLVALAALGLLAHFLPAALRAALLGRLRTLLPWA
# procedure-text: In vitro assay Method B: LTC4 synthase, LTA4 to LTC4, HTRF detection
# Assay type: biochemical
# condition-notes: total concentration of title compound 10 μM, read-out: % inh. of LTC4 synthase
value-type: inhibition at 10 µM (%)

Cc1ccc(COc2ccc(-n3c(CC(=O)O)c(C(=O)O)c4cc(Oc5ccc(OC(C)C)cc5)ccc43)cc2)cc1 [Example 1:2] ... 96
CC(C)Oc1ccc(Oc2ccc3c(c2)c(C(=O)O)c(CC(=O)O)n3-c2ccc(OC3CCCC3)cc2)cc1 [Example 4:1] ... 98
COc1ccc(COc2ccc(-n3c(CC(=O)O)c(C(=O)O)c4cc(Oc5ccc(OC(C)C)cc5)ccc43)cc2)cc1 [Example 1:5] ... 97
CC(C)Oc1ccc(Oc2ccc3c(c2)c(C(=O)O)c(CC(=O)O)n3-c2ccc(OCc3ccccc3C(F)(F)F)cc2)cc1 [Example 1:8] ... 98
CC(C)Oc1ccc(Oc2ccc3c(c2)c(C(=O)O)c(CC(=O)O)n3-c2ccc(Oc3cccc(Cl)c3)cc2)cc1 [3:2] ... 97
CCCCCCCCOc1ccc(-n2c(CC(=O)O)c(C(=O)O)c3cc(Oc4ccc(OC(C)C)cc4)ccc32)cc1 [Example 5:2] ... 97
CC(C)Oc1ccc(Oc2ccc3c(c2)c(C(=O)O)c(CC(=O)O)n3-c2ccc(OC3CC4CCC3C4)cc2)cc1 (centres unmarked) [5:3] ... 95
O=C(O)Cc1c(C(=O)O)c2cc(Oc3ccc(OC(F)(F)F)cc3)ccc2n1-c1ccc(NCc2ccccc2)cc1 [6:9] ... 100

Data origin: patent US20120029016A1
